Source listed as patent US8148391B2.

molecular target: c-Met (cytoplasmic domain) (Homo sapiens, UniProt P08581); construct: 10 ng/mL c-Met (cytoplasmic domain, Invitrogen Corporation #PV3143); purchased Invitrogen Corporation PV3143; assay: c-Met Kinase Assay (same methods as for ALK, with modifications); format: biochemical; details: 1 μM ATP (Km level), 10 ng/mL c-Met; read-out: cMet Activity (c-Met kinase inhibition, IC50 class)
Sequence (P08581 956-1390 limits assumed): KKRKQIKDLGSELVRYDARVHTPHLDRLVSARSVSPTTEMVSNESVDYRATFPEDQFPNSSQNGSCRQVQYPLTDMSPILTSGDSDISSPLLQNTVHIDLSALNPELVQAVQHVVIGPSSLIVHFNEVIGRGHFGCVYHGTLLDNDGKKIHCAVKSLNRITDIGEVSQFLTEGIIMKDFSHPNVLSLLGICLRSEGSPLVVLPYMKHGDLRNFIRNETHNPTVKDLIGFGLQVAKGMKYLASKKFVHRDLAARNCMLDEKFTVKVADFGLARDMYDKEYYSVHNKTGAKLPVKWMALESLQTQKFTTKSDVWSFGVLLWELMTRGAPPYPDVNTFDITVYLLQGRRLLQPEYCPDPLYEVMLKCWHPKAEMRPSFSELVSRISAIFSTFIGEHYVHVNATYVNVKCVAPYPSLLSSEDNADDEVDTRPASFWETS
pIC50: −log10 of the molar value.

compound: COc1cc2c(cc1Nc1ncc(Cl)c(Nc3ccc(N(C)C)cc3OC)n1)CCN(CCS(C)(=O)=O)CC2
pIC50: < 5.00

compound: COc1ccc(Nc2nc(Nc3cc4c(cc3OC)CCN(CC(=O)N(C)C)CC4)ncc2Cl)c(S(=O)(=O)C(C)C)c1
pIC50: < 5.00

compound: COc1cc2c(cc1Nc1ncc(Cl)c(N[C@@H]3CCCC[C@H]3NS(C)(=O)=O)n1)CCC(NCCO)CC2 (single isomer, unassigned) [Example 1095]
pIC50: < 5.00

compound: COc1cc2c(cc1Nc1ncc(Cl)c(Nc3ccc(C#N)cc3OC)n1)CCN(CC(=O)N(C)C)CC2
pIC50: < 5.00

compound: CNC(=O)c1cccc(F)c1Nc1nc(Nc2ccc3c(c2)NC(=O)C(N2CCOCC2)CC3(C)C)ncc1Cl (stereo not shown)
pIC50: > 7.00

compound: CC1(C)CCC(=O)Nc2cc(Nc3ncc(Cl)c(Nc4c(F)cccc4C(=O)NCC#N)n3)ccc21
pIC50: > 7.00

compound: CCN1C(=O)[C@H](NC(=O)C2CC2)CCc2c1ccc(Nc1ncc(Cl)c(N[C@H]3[C@@H](C(N)=O)[C@@H]4C=C[C@H]3C4)n1)c2OC (single isomer, unassigned)
pIC50: < 5.00

compound: COc1cccc(C(=O)NCC#N)c1Nc1nc(Nc2ccc3c(c2)C(C)(C)CCC(=O)N3)ncc1Cl
pIC50: 5.00 to 6.00

compound: CNC(=O)CN1CCc2cc(Nc3ncc(Cl)c(Nc4cc(C(N)=O)ccc4OC)n3)c(OC)cc2CC1
pIC50: < 5.00

compound: COc1cc2c(cc1Nc1ncc(Cl)c(Nc3ccccc3S(=O)(=O)N3CCCC3)n1)CCN(CC(=O)N(C)C)CC2
pIC50: 5.00 to 6.00

compound: COCCN1CCc2ccc(Nc3ncc(Cl)c(N[C@H]4CC[C@@H](N(CC#N)S(C)(=O)=O)CC4)n3)cc2CC1
pIC50: 5.00 to 6.00

compound: COCCN1CCc2ccc(Nc3ncc(Cl)c(Nc4c(F)cccc4C(=O)NCCC#N)n3)cc2CC1
pIC50: > 7.00

compound: CCN1C(=O)[C@H](NC(=O)COC)CCc2c1ccc(Nc1ncc(Cl)c(N[C@H]3[C@@H](C(N)=O)[C@@H]4C=C[C@H]3C4)n1)c2OC (single isomer, unassigned)
pIC50: < 5.00

* * *

target: c-Met (cytoplasmic domain) (Homo sapiens); construct: 10 ng/mL c-Met (cytoplasmic domain, Invitrogen Corporation #PV3143); purchased Invitrogen Corporation PV3143; assay: c-Met Kinase Assay (same methods as for ALK, with modifications); format: biochemical; settings: 1 μM ATP (Km level); read-out: cMet Activity (c-Met Kinase Inhibition, IC50)

compound: COCCN1CCc2ccc(Nc3ncc(Cl)c(Nc4ccc(N5CCOCC5)cc4S(=O)(=O)N(C)C)n3)cc2CC1
IC50: 1 to 10 µM

compound: COc1cc2c(cc1Nc1ncc(Cl)c(Nc3ccc(N4CCOCC4)cc3OC)n1)CCN(CC(N)=O)CC2
IC50: > 10 µM

compound: COc1ccc(Nc2nc(Nc3ccc4c(c3)CCC(N3CCOCC3)CC4)ncc2Cl)c2c1CN(C)C2=O (stereo not shown)
IC50: 1 to 10 µM

compound: COc1cc2c(cc1Nc1ncc(C(F)(F)F)c(Nc3ccccc3S(=O)(=O)C(C)C)n1)CCN(CC(=O)N(C)C)CC2
IC50: > 10 µM

compound: CNC(=O)c1ccccc1Nc1nc(Nc2ccc3c(c2)NC(=O)CCC3)ncc1Cl
IC50: < 0.1 µM

compound: CCN1CCN(CC)c2cc(Nc3ncc(Cl)c(Nc4c(F)cccc4C(=O)NC)n3)ccc2C1
IC50: < 0.1 µM

compound: COc1ccc(Nc2ncc(Cl)c(N[C@H]3[C@@H](C(N)=O)[C@@H]4C=C[C@H]3C4)n2)c2c1CCCC(N1CCOCC1)C2 (single isomer, unassigned) [Example 943]
IC50: > 10 µM

* * *

target: baculovirus-expressed ALK (Homo sapiens, UniProt Q9UM73); construct: host or cells: baculovirus expression system; assay: ALK Kinase Assay (ELISA-type, time-resolved fluorescence); assay type: biochemical; settings: 1 μM ATP (Km level); read-out: ALK Activity (ALK Kinase Inhibition, IC50)
Sequence (Q9UM73 19-1620): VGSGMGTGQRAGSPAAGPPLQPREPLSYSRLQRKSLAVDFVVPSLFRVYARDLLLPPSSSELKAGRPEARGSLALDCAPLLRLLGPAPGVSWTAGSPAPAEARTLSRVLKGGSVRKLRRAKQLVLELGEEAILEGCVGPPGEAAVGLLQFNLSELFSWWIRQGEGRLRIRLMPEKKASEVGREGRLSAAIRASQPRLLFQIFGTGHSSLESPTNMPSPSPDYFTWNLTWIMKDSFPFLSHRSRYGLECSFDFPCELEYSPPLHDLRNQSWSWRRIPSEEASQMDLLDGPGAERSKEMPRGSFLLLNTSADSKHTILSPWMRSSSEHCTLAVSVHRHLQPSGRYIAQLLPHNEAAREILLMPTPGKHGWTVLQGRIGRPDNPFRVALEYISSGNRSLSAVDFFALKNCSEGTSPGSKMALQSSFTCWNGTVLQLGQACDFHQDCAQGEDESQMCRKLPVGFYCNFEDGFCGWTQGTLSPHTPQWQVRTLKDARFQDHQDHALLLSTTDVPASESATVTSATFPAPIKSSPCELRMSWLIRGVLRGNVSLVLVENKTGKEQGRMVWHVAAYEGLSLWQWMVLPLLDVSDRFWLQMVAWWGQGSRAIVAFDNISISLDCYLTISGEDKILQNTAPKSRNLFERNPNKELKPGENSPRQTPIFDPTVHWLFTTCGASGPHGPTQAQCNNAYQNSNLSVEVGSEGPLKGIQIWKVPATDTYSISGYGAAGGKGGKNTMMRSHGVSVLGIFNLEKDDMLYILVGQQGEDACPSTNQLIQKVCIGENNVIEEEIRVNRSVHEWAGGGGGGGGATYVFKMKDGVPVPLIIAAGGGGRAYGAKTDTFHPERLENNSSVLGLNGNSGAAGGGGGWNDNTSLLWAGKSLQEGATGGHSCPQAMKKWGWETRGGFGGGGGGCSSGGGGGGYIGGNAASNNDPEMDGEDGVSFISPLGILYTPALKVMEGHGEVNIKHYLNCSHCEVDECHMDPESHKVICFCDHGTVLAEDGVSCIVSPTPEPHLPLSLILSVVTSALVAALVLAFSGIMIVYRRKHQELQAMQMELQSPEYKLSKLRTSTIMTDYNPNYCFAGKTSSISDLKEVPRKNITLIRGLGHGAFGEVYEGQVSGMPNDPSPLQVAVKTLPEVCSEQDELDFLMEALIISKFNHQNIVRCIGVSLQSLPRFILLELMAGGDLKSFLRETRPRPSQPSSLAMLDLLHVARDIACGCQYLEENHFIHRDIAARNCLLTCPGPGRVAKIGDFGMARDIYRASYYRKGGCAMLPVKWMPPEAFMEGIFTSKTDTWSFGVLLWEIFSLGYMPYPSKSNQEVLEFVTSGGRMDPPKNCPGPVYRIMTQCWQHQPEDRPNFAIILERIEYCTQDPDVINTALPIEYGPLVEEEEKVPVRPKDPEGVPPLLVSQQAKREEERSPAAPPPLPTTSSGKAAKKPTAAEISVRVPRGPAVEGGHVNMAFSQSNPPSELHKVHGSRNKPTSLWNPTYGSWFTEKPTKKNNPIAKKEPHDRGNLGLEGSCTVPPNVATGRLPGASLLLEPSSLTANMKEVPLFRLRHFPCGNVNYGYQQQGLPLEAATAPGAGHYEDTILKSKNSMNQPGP

compound: COc1cc2c(cc1Nc1ncc(F)c(Nc3ccc(N4CCN(C)CC4)cc3OC)n1)CCN(CC(=O)N(C)C)CC2 [Example 793]
IC50: < 100 nM
--
compound: COc1cc2c(cc1Nc1ncc(Cl)c(N[C@@H]3CCCC[C@H]3NS(C)(=O)=O)n1)CCN(CC(F)F)CC2 [Example 762]
IC50: < 100 nM
--
compound: CS(=O)(=O)Nc1ccccc1Nc1nc(Nc2ccc3c(c2)CNCCS3(=O)=O)ncc1Cl [Example 523]
IC50: 100 to 1000 nM
--
compound: CCN1CCOc2cc(Nc3ncc(Cl)c(Nc4ccccc4C(=O)NC)n3)ccc2C1=O [Example 515]
IC50: < 100 nM
--
compound: COc1c(Nc2ncc(Cl)c(Nc3ccccc3-n3cccn3)n2)ccc2c1CCC(NCC(F)(F)F)CC2 (stereo not shown) [Example 690]
IC50: 100 to 1000 nM
--
compound: CCN1C(=O)CCCc2c1ccc(Nc1ncc(Cl)c(Nc3ccccc3-c3nccn3C)n1)c2OC [Example 983]
IC50: < 100 nM
--
compound: COc1ccc(Nc2nc(Nc3cc4c(cc3OC)CCN(CC(=O)N(C)C)CC4)ncc2Cl)c(N2CCOCC2)c1 [Example 829]
IC50: < 100 nM

* * *

molecular target: c-Met (cytoplasmic domain) (Homo sapiens); construct: 10 ng/mL c-Met (cytoplasmic domain, Invitrogen Corporation #PV3143); purchased Invitrogen Corporation PV3143; test: c-Met Kinase Assay (same methods as for ALK, with modifications); assay type: biochemical; details: 1 μM ATP (Km level), 10 ng/mL c-Met; read-out: cMet Activity (c-Met kinase inhibition, IC50 class)
assay.metric: IC50

molecule: CCN1C(=O)CCCc2ccc(Nc3ncc(Cl)c(Nc4ccccc4CCC#N)n3)cc21
endpoint.value: 1 to 10 µM

molecule: CNC(=O)C1(Nc2nc(Nc3cc4c(cc3OC)CCN(CCOC)CC4)ncc2Cl)CC1
endpoint.value: > 10 µM

molecule: CN1C(=O)CCC(C)(C)c2cc(Nc3ncc(Cl)c(Nc4ccccc4-n4cccn4)n3)ccc21
endpoint.value: 0.1 to 1 µM

molecule: CCN1C(=O)CCC(C)(C)c2cc(Nc3ncc(Cl)c(N[C@H]4[C@@H](C(N)=O)[C@@H]5C=C[C@H]4C5)n3)c(OC)cc21
endpoint.value: > 10 µM

molecule: COc1cc2c(cc1Nc1ncc(Cl)c(N[C@H]3[C@@H](C(N)=O)[C@@H]4C=C[C@H]3C4)n1)CCN(Cc1ncco1)CC2
endpoint.value: > 10 µM

molecule: CCN1C(=O)CCCc2c1ccc(Nc1ncc(Cl)c(Nc3ccc(N4CCN(C)CC4)cc3OC)n1)c2OC
endpoint.value: > 10 µM

molecule: CCN1C(=O)C(N)CCc2c1ccc(Nc1ncc(Cl)c(N[C@@H]3CCCC[C@H]3NS(C)(=O)=O)n1)c2OC (some centres unmarked)
endpoint.value: > 10 µM

molecule: CCN1C(=O)[C@@H](NC(=O)COC)CCc2c1ccc(Nc1ncc(Cl)c(N[C@H]3[C@@H](C(N)=O)[C@@H]4C=C[C@H]3C4)n1)c2OC (single isomer, unassigned)
endpoint.value: > 10 µM

molecule: CNC(=O)c1ccccc1Nc1nc(Nc2c(OC)ccc3c2CCC(N2CCOCC2)CC3)ncc1Cl (centres unmarked)
endpoint.value: > 10 µM

molecule: CCN1C(=O)C(NC(=O)C(F)(F)F)CCc2c1ccc(Nc1ncc(Cl)c(Nc3ccccc3S(=O)(=O)C(C)C)n1)c2OC (centres unmarked)
endpoint.value: > 10 µM

molecule: CC1(C)CCC(=O)Nc2ccc(Nc3ncc(Cl)c(Nc4c(F)cccc4C(=O)NCC#N)n3)cc21
endpoint.value: < 0.1 µM

molecule: COCCN1CCc2cc(Nc3ncc(Cl)c(N[C@@H]4[C@H](C(N)=O)[C@H]5C=C[C@@H]4C5)n3)c(OC)cc2CC1
endpoint.value: > 10 µM

molecule: CNC(=O)c1cccc(F)c1Nc1nc(Nc2ccc3c(c2)-n2cccc2C(=O)CO3)ncc1Cl
endpoint.value: < 0.1 µM

molecule: CCN1C(=O)CCCc2ccc(Nc3ncc(Cl)c(Nc4ccccc4OCC#N)n3)cc21
endpoint.value: < 0.1 µM

molecule: O=C1CCCc2ccc(Nc3ncc(Cl)c(Nc4c(F)cccc4OC4CCOC4)n3)cc2N1 (centres unmarked)
endpoint.value: 0.1 to 1 µM

molecule: CC1(C)CCC(=O)Nc2ccc(Nc3ncc(Cl)c(Nc4c(F)cccc4C(=O)NCCC#N)n3)cc21
endpoint.value: 0.1 to 1 µM

molecule: COc1cc2c(cc1Nc1ncc(Cl)c(Nc3ccc(N4CCOCC4)cc3)n1)CCN(CC(=O)N(C)C)CC2
endpoint.value: > 10 µM

molecule: COc1cc(N2CCOCC2)ccc1Nc1nc(Nc2ccc3c(c2)NC(=O)CCC3(C)C)ncc1Cl
endpoint.value: 0.1 to 1 µM

molecule: CCCCNC(=O)c1ccccc1Nc1nc(Nc2ccc3c(c2)CCCC(=O)N3)ncc1Cl
endpoint.value: 1 to 10 µM

molecule: CN(C)C(=O)CN1CCc2ccc(Nc3ncc(Cl)c(N[C@@H]4CCCC[C@H]4NS(C)(=O)=O)n3)cc2CC1
endpoint.value: 0.1 to 1 µM

molecule: CCCNC(=O)c1ccccc1Nc1nc(Nc2ccc3c(c2)CCN(CCOC)CC3)ncc1Cl
endpoint.value: 0.1 to 1 µM

molecule: CNC(=O)c1cccc(F)c1Nc1nc(Nc2ccc3c(c2)CCN(CC(=O)N(C)C)CC3)ncc1Cl
endpoint.value: < 0.1 µM

molecule: CCN1C(=O)[C@@H](N(C)C)CCc2c1ccc(Nc1ncc(Cl)c(N[C@H]3[C@@H](C(N)=O)[C@@H]4C=C[C@H]3C4)n1)c2OC (single isomer, unassigned)
endpoint.value: 1 to 10 µM

molecule: CN(CCC#N)c1cccc(F)c1Nc1nc(Nc2ccc3c(c2)NC(=O)CCC3(C)C)ncc1Cl
endpoint.value: 1 to 10 µM

molecule: O=C1CCCc2ccc(Nc3ncc(Cl)c(Nc4c(F)cccc4OCCCOCc4ccccc4)n3)cc2N1
endpoint.value: > 10 µM

molecule: CC1(C)CCC(=O)Nc2cc(Nc3ncc(Cl)c(Nc4ccccc4OCCC#N)n3)ccc21
endpoint.value: < 0.1 µM

molecule: COCCN1CCc2ccc(Nc3ncc(Cl)c(Nc4ccccc4S(C)(=O)=O)n3)cc2CC1
endpoint.value: 0.1 to 1 µM

molecule: CCN1C(=O)C(NC(=O)C(F)(F)F)CCc2c1ccc(Nc1ncc(Cl)c(N[C@H]3[C@@H](C(N)=O)[C@@H]4C=C[C@H]3C4)n1)c2OC (some centres unmarked)
endpoint.value: > 10 µM

molecule: COCCN1CCc2ccc(Nc3ncc(Cl)c(Nc4c(F)cccc4OC4CCOC4)n3)cc2CC1 (centres unmarked)
endpoint.value: 0.1 to 1 µM
